Reference source: ChEMBL document CHEMBL6074642

Test system: Leishmania donovani
Test: Antileishmanial activity against Leishmania donovani amastigotes infected in J774 macrophage assessed as inhibition of parasite growth incubated for 48 hrs by luciferase assay
Type: functional, organism-based
Details: J774, 48 h
pIC50: −log10 of the molar value.
Quick rule for you: pIC50 at 8 or higher means Criterion met, lower means Criterion not met.

Previously resolved entries follow.
Smiles Representation: C=C[C@@H](C#CC#C[C@@H](O)CCCCCCCCC)OC(C)=O
Answer Label: Criterion not met
--
Smiles Representation: C=C[C@@H](C#CC#C[C@@H](CCCCCCCCC)NC(=O)c1ccccc1)OC(C)=O
Answer Label: Criterion not met
--
Smiles Representation: C=C[C@H](O)C#CC#C[C@@H](CCCCCCCCC)NC(=O)c1ccccc1
Answer Label: Criterion met
--
Smiles Representation: C=C[C@H](C#CC#C[C@@H](O)CCCCCCCCC)OC(C)=O
Answer Label: Criterion not met
--
Smiles Representation: C=C[C@@H](C#CC#C[C@@H](CCCCCCCCC)NS(C)(=O)=O)OC(C)=O
Answer Label: Criterion not met
--
Smiles Representation: C=C[C@H](O)C#CC#C[C@@H](CCCCCCCCC)NCCCC
Answer Label: Criterion met
--
Smiles Representation: C=C[C@@H](C#CC#C[C@H](O)CCCCCCCCC)OC(C)=O
Answer Label: Criterion not met
--
Smiles Representation: C=C[C@H](C#CC#C[C@H](O)CCCCCCCCC)OC(C)=O
Answer Label: Criterion not met

Next item in the queue.
Exercise: Record C=C[C@@H](C#CC#C[C@@H](CCCCCCCCC)NCCCC)OC(C)=O ; criterion: pIC50 no lower than 8. Met?
Solution: Criterion not met

* * *

Tested on: Leishmania amazonensis
Assay: Antileishmanial activity against leishmania amazonensis promastigotes MHOM/BR/77/LTB0016 assessed as assessed as parasite growth inhibition incubated for 72 hrs by Alamar Blue assay
Assay type: functional, organism-based
Details: MHOM/BR/77/LTB0016, 72 h
For each entry below, report its pIC50 value.
One number for each entry, as −log10 of the molar value.

Compound: C=CC(O)C#CC#C/C=C/C(O)CCCCCCC (configuration not stated)
pIC50: 5.24

Next item in the queue.
Exercise: Which pIC50 value is on record for C=CC(O)C#CC#CC(O)/C=C\CCCCCCC (configuration not stated) ?
Solution: 5.24

* * *

Test system: Phytophthora capsici
Assay: Antifungal activity against Phytophthora capsici
Type: functional, organism-based
Observable: EC50 (µg/mL)
One number for each entry, in µg/mL.

Below are worked cases with known answers.
Compound: C=C[C@@H](O)C#CC#C[C@H](O)c1cccs1
EC50 / µg/mL: 31

Compound: C=CC(O)C#CC#CC(O)c1cccs1 (stereo not given)
EC50 / µg/mL: 2.1

Compound: C=C[C@H](O)C#CC#C[C@@H](O)c1cccs1
EC50 / µg/mL: 3.6

Compound: C=C[C@H](O)C#CC#C[C@H](O)c1cccs1
EC50 / µg/mL: 2.7

Next item in the queue.
Exercise: Which EC50 value is on record for C=C[C@@H](O)C#CC#C[C@@H](O)c1cccs1 ?
Solution: 3.3

* * *

Tested on: Mycobacterium intracellulare
Assay: Antibacterial activity against Mycobacterium intracellulare
Format: functional, organism-based
Observable: pIC50
Answers are plain numbers, as −log10 of the molar value.

Below are worked cases with known answers.
Compound: CCCCCCCC/C=C\CCCCCCCCC[C@@H](O)C#CC#CCO
pIC50: 4.77
--
Compound: CC(C)CCCC/C=C\CCCCCCCCC[C@@H](O)C#CC#CCO
pIC50: 5.00
--
Compound: CCCCCCCCCCCCCCCC[C@@H](O)C#CC#CCO
pIC50: 5.11

Count: 2. Required value per item: pIC50.
1. CCCCCC/C=C\CCCCCCCCC[C@@H](O)C#CC#CCO
2. CCCCCCCCCCCCC1CC1CCCC(O)C#CC#CCO (stereo not given)

Solution:
1: 4.64; 2: 4.85
